pIC50 values for the molecules below.
# TEST TARGET: NRAS G12C (Homo sapiens, UniProt P01111+P62937, G12C)
# Sequence (P01111 whole entry G12C): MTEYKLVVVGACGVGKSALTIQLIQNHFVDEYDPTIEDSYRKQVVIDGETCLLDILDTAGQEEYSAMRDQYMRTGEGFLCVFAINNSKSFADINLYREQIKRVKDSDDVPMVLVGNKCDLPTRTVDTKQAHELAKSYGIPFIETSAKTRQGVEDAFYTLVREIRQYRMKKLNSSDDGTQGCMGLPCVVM
# Sequence (P62937 whole entry): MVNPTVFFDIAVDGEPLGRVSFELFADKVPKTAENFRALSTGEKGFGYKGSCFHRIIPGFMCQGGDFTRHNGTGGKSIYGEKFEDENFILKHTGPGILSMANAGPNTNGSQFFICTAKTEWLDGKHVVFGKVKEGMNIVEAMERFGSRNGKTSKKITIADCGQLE
# PROCEDURE TEXT: Disruption of BRAF RBD interaction with Ras (FRET / MOA assay, with Cyclophilin A)
# Assay type: biochemical
# EXPERIMENTAL CONTEXT: NRAS G12C; read-out: NRAS G12C FRET data IC50
pIC50: −log10 of the molar value.

Check out these entries, answers already filled in.
MOLECULE	TEST TARGET	pIC50
C=CC(=O)N1CCO[C@H]2CN(C(=O)N(C)[C@H](C(=O)N[C@H]3Cc4cccc(c4)-c4ccc5c(c4)c(c(-c4cccnc4[C@H](C)OC)n5CC)CC(C)(C)COC(=O)C4CCCN(N4)C3=O)C(C)C)C[C@H]21 (stereo partly shown)	NRAS G12C (Homo sapiens, UniProt P01111+P62937, G12C)	7.00 to 8.00
CCn1c(-c2cc(N3CCN(C)CC3)cnc2[C@H](C)OC)c2c3cc(ccc31)-c1csc(n1)C[C@H](NC(=O)[C@H](C(C)C)N(C)C(=O)N(C)C)C(=O)N1CCC[C@H](N1)C(=O)OCC(C)(C)C2 (atropisomer, axis not shown)	NRAS G12C (Homo sapiens, UniProt P01111+P62937, G12C)	7.00 to 8.00
CCn1c(-c2cccnc2[C@H](C)OC)c2c3cc(ccc31)-c1csc(n1)C[C@H](NC(=O)[C@H](C1CCCC1)N(C)C(C)=O)C(=O)N1CCC[C@H](N1)C(=O)OCC(C)(C)C2	NRAS G12C (Homo sapiens, UniProt P01111+P62937, G12C)	5.00 to 6.00

Dear colleague, I am looking for the recorded pIC50 of the following molecule: CCn1c(-c2cccnc2[C@H](C)OC)c2c3cc(ccc31)-c1cc(sn1)C[C@H](NC(=O)[C@H](C(C)C)N(C)C(=O)[C@@H]1CCN(C(=O)C#CCN3CCOCC3)C1)C(=O)N1CCC[C@H](N1)C(=O)OCC(C)(C)C2
6.00 to 7.00

====

Here, each record is paired with measured pIC50 data.
# TEST TARGET: KRAS G12S (Homo sapiens, UniProt P01116+P62937, G12S)
# Sequence (P01116 1-169 isoform P01116-2 G12S limits assumed): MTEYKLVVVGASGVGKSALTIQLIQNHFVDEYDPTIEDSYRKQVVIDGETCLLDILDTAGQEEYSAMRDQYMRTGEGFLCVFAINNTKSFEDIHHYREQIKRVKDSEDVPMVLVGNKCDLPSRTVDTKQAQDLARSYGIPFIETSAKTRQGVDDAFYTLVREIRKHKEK
# Sequence (P62937 whole entry): as the sequence (P62937 whole entry) above
# PROCEDURE TEXT: Disruption of BRAF RBD interaction with Ras (FRET / MOA assay, with Cyclophilin A)
# Format: biochemical
# EXPERIMENTAL CONTEXT: read-out: KRAS G12S FRET data, IC50
pIC50: −log10 of the molar value.

Sample answers from the record:
MOLECULE	TEST TARGET	RESULT
CCn1c(-c2cccnc2COC)c2c3cc(ccc31)-c1cc(O)cc(c1)C[C@H](NC(=O)[C@H](C(C)C)N(C)C(=O)C1CN(C(=O)C#CCN(C)C)C1)C(=O)N1CCC[C@H](N1)C(=O)OCC(C)(C)C2	KRAS G12S (Homo sapiens, UniProt P01116+P62937, G12S)	6.00 to 7.00
C=CC(=O)N1CC[C@H](C(=O)N(C)[C@H](C(=O)N[C@H]2Cc3nsc(n3)-c3ccc4c(c3)c(c(-c3cccnc3[C@H](C)OC)n4CC)CC(C)(C)COC(=O)[C@@H]3CCCN(N3)C2=O)C(C)C)C1 (atropisomer, axis not shown)	KRAS G12S (Homo sapiens, UniProt P01116+P62937, G12S)	5.00 to 6.00
C=CC(=O)N1CCOC2(CCN(C(=O)N(C)[C@H](C(=O)N[C@H]3Cc4cc(CF)cc(c4)-c4ccc5c(c4)c(c(-c4cccnc4[C@H](C)OC)n5CC(F)(F)F)CC(C)(C)COC(=O)C4CCCN(N4)C3=O)C(C)C)CC2)C1 (stereo partly shown)	KRAS G12S (Homo sapiens, UniProt P01116+P62937, G12S)	6.00 to 7.00

Turning now to a further molecule:
Requested read-out pIC50, target or system KRAS G12S (Homo sapiens, UniProt P01116+P62937, G12S), entry C=CC(=O)N1CC[C@H](C(=O)N(C)[C@H](C(=O)N[C@H]2C[C@H]3CN(CCCO3)c3ccc4c(c3)c(c(-c3cccnc3[C@H](C)OC)n4CC)CC(C)(C)COC(=O)[C@@H]3CCCN(N3)C2=O)C(C)C)C1 (racemic)
< 5.00
